FYI, the data here is from patent US6399641B1.

Some compounds, each annotated with its measured melting point.

# example entries with known answers
O=C(Nc1nnn(CC2CC2)n1)C1c2ccccc2Oc2ccccc21 [Example 6] : 222 to 224 °C
CCn1nnc(NC(=O)C2c3ccccc3Oc3cccc(OC)c32)n1 (racemic) [Example 26] : 259 to 260 °C (dec.)
COCn1nnc(NC(=O)C2c3ccccc3Oc3ccccc32)n1 [Example 14] : 221 to 222 °C
CC(C)(C)n1nnc(NC(=O)C2c3ccccc3Oc3ccccc32)n1 [Example 16] : 230 to 231 °C

Moving on to another compound below.
Prompt: Report melting point, nothing else, for this compound: CCn1nnc(NC(=O)C2c3ccccc3Oc3ccc(OC)cc32)n1 (racemic) [Example 27]
Completion: 208 to 210 °C (dec.)

====

ASSAYED TARGET: UniProt P23385
Sequence (P23385 19-1199): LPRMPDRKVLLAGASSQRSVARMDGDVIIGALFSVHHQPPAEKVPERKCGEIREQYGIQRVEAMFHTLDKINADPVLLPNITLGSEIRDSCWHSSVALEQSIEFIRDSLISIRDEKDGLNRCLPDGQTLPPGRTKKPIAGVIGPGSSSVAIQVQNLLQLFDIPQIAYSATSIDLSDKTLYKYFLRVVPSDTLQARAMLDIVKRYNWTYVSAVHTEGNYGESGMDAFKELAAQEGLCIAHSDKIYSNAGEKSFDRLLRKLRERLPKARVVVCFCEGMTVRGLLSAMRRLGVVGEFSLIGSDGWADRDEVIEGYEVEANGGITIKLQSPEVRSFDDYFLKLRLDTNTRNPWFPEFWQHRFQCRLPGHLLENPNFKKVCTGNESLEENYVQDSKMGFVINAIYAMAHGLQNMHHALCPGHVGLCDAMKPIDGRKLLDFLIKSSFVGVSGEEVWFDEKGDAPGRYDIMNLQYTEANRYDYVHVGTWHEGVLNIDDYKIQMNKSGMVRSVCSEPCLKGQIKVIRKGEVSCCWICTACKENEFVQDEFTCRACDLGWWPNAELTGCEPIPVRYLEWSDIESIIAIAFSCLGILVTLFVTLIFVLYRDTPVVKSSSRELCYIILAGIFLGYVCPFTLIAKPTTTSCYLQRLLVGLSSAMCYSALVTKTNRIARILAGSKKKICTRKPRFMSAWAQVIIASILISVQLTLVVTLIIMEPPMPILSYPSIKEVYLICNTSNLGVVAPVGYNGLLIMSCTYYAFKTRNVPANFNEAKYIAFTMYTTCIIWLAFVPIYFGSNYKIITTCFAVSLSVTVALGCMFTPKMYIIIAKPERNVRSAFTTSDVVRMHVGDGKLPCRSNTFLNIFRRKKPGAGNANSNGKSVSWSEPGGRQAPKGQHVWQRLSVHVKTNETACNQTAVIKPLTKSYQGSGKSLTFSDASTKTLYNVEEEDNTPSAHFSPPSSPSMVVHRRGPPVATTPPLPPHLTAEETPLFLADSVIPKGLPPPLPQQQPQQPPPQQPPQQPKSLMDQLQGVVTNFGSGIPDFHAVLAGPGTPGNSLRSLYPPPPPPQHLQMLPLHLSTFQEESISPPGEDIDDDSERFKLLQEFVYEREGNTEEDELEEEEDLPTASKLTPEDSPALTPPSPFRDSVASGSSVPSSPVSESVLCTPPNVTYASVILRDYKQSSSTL
METHOD DESCRIPTION: [Ca2+]i measurement (FLIPR) on mGlu1a transfected EBNA cells
TEST CONDITIONS: agonist activity, rat mGlu1a transiently transfected EBNA cells, Fluo-3 AM
OBSERVABLE: EC50 (nM)

CC(C)n1nnc(NC(=O)C2c3ccccc3Oc3ccccc32)n1 : 45

(P) CC(C)n1nnc(NC(=O)C(c2ccccc2)c2ccccc2)n1
(Q) CCn1nnc(NC(=O)C2c3ccccc3Oc3ccc(OC)cc32)n1 (racemic)
(R) CCn1nnc(NC(=O)C2c3ccccc3COc3ccccc32)n1 (racemic)
Prompt: Hey, quick one: sort these by EC50, largest value first please. To answer, arrange all of the labels according to the requested order.
Completion: R, Q, P

(a) Cn1nnc(NC(=O)C2c3ccccc3Oc3ccccc32)n1
(b) O=C(Nc1nnn(CC(F)(F)F)n1)C(c1ccccc1)c1ccccc1
Prompt: Compare reported EC50 values for a and b . Which is lower? # respond with the chosen item's label
Completion: a

====

OBSERVABLE: melting point

O=C(Nc1nnn(C(F)F)n1)C1c2ccccc2Oc2ccccc21 [Example 18] : 168 to 169 °C
O=C(Nc1nnn(CC2CC2)n1)C(c1ccccc1)c1ccccc1 [Example 5] : 147 to 148 °C
N#CCn1nnc(NC(=O)C(c2ccccc2)c2ccccc2)n1 [Example 19] : 173 to 174 °C
COC(=O)Cn1nnc(NC(=O)C(c2ccccc2)c2ccccc2)n1 [Example 21] : 168 to 169 °C
Cn1nnc(NC(=O)C2c3ccccc3Oc3ccccc32)n1 [Example 2] : 247 °C (dec.)

Prompt: Check the records and state melting point for O=C(Nc1nnn(C(F)F)n1)C(c1ccccc1)c1ccccc1 [Example 17]
Completion: 143 to 145 °C

Prompt: Given the molecule CCn1nnc(NC(=O)C2c3ccccc3Cc3ccccc32)n1 [Example 23] , write its reported melting point.
Completion: 206 to 207 °C

Prompt: Using the record for CCCn1nnc(NC(=O)C2c3ccccc3Oc3ccccc32)n1 [Example 12] , state its measured melting point.
Completion: 208 to 209 °C

Prompt: Give reported melting point value for CCn1nnc(NC(=O)C(c2ccccc2)c2ccccc2)n1 [Example 3]
Completion: 169 to 170 °C

Prompt: Tell me measured melting point for CCn1nnc(NC(=O)C2c3ccccc3COc3ccccc32)n1 (racemic) [Example 24] please.
Completion: 158 to 159 °C

Prompt: Recall and state the measured melting point for O=C(Nc1nnn(CC(F)(F)F)n1)C1c2ccccc2Oc2ccccc21 [Example 10] .
Completion: 209 to 210 °C

Prompt: Indicate its recorded melting point; the molecule in question is CCCn1nnc(NC(=O)C(c2ccccc2)c2ccccc2)n1 [Example 11]
Completion: 124 to 125 °C

Prompt: For the molecule O=C(Nc1nnn(CC(F)(F)F)n1)C(c1ccccc1)c1ccccc1 [Example 9] , give its reported melting point.
Completion: 146 to 148 °C

Prompt: For the molecule CCn1nnc(NC(=O)C2c3ccccc3Oc3c(OC)cccc32)n1 (racemic) [Example 28] , give its measured melting point value.
Completion: 239 to 240 °C (dec.)

Prompt: Specify measured melting point for CC(C)n1nnc(NC(=O)C(c2ccccc2)c2ccccc2)n1 [Example 7] .
Completion: 175 to 177 °C

Prompt: Write down melting point measured for item Cn1nnc(NC(=O)C(c2ccccc2)c2ccccc2)n1 [Example 1]
Completion: 218 °C (dec.)

Prompt: Consider the molecule N#CCn1nnc(NC(=O)C2c3ccccc3Oc3ccccc32)n1 [Example 20] . State its measured melting point.
Completion: 204 to 205 °C

Prompt: Give the value of melting point reported for the following: CCn1nnc(NC(=O)C2c3ccccc3Oc3ccccc32)n1 [Example 4]
Completion: 228 °C (dec.)

Prompt: Give melting point for COCn1nnc(NC(=O)C(c2ccccc2)c2ccccc2)n1 [Example 13]
Completion: 127 to 128 °C

Prompt: Write down melting point measured for item CC(C)(C)n1nnc(NC(=O)C(c2ccccc2)c2ccccc2)n1 [Example 15]
Completion: 191 to 192 °C

Prompt: Look up and report measured melting point for this entry: COC(=O)Cn1nnc(NC(=O)C2c3ccccc3Oc3ccccc32)n1 [Example 22]
Completion: 243 to 244 °C
